Assay: Drug level in ICR mouse plasma at 5 mg/kg, iv measured after 0.5 hrs by LC-MS/MS analysis
Format: ADME, organism-based
measure: concentration at 0.5 h (ng/mL)
The answer is to be given in ng/mL; state only the numeric part.

CCCN(CCCCNC(=O)c1cc2ccccc2[nH]1)C[C@@H]1C[C@H]1c1cccc(Cl)c1Cl.Cl    215
CCCN(CCCCNC(=O)c1ccc(-c2ccccn2)cc1)C[C@@H]1C[C@H]1c1cc(F)ccc1OC.Cl    446
CCCN(CCCCNC(=O)c1ccc(-c2ccccn2)cc1)C[C@@H]1C[C@H]1c1cccc(Cl)c1Cl.Cl    511

Next molecule, concentration at 0.5 h to be filled in.
Inquiry: # query: concentration at 0.5 h of entry CCCN(CCCCNC(=O)c1ccc2ccccc2c1)C[C@@H]1C[C@H]1c1cccc(Cl)c1Cl.Cl
Reply text: 270
